conditions: 298.15 K; 5000 kPa; Liquid; Vibrating tube method
quantity name: mass density (kg/m3)

* CCCCCCCCCC | 730.5
* CCCCCCCCCCCC | 749
* CCCCCCCCCCCCCCCC | 773.6
* CCCCCC | 660.1

###

settings: 463.15 K; 30000 kPa; Liquid; Vibrating tube method
quantity name: mass density (kg/m3)

• CCCCCC = 559.8
• CCCCCCCCCC = 641.4
• CCCCCCCCCCCC = 664.2
